- Organism: Homo sapiens
- procedure_text: Selectivity index, ratio of IC50 for human recombinant MAO-A to IC50 for human recombinant MAO-B

| molecule | comparison_sign | Ratio IC50 |
| --- | --- | --- |
| C#CCN(C)Cc1cn(CCc2ccccc2)nn1 | > | 44.6 |
| C#CCN(C)CCc1nnn(-c2ccccc2)c1CC | = | 0.04 |
| C#CCN(C)Cc1nnn(C)c1CCCC | < | 3.2 |
| C#CCN(C)CCc1nnn(C(C)c2ccccc2)c1C (stereo not drawn) | = | 0.4 |
| C#CCN(C)Cc1cn(Cc2ccccc2)nn1 | > | 3.9 |
| C#CCN(C)CCc1nnn(-c2ccccc2)c1CCCC | = | 0.1 |
| C#CCN(C)CCc1cn(CC)nn1 | = | 1.5 |
| C#CCN(C)CCc1nnn(CC)c1C | = | 0.4 |
